Tgt: purified HLA-DRB1*0101 (Homo sapiens, UniProt P01903+P01911, A100R/D57E/F55L/F60I/F76Y/I96L/L162R/M171V/P40L/Q125E/R42F/V115G/Y59C)
Protocol details: biochemical
Each record here notes measured IC50.
Quantity measured: IC50 (nM)

[[record]]
compound = "CC(C)[C@H](NC(=O)[C@H](C)NC(=O)[C@H](Cc1c[nH]c2ccccc12)NC(=O)[C@H](Cc1ccccc1)NC(=O)[C@H](Cc1ccccc1)NC(=O)[C@H](CC(N)=O)NC(=O)[C@H](CCC(N)=O)NC(=O)[C@H](CC(N)=O)NC(=O)[C@@H](N)CC(N)=O)C(=O)N[C@@H](CCCCN)C(=O)N1CCC[C@H]1C(=O)N[C@@H](CCCCN)C(=O)N[C@H](C(=O)N[C@H](C(=O)N[C@@H](CCCNC(=N)N)C(=O)O)C(C)C)C(C)C [MACV L1711-1725]"
reading = 1.7

[[record]]
compound = "CC[C@H](C)[C@H](NC(=O)[C@H](Cc1ccc(O)cc1)NC(=O)[C@H](CC(=O)O)NC(=O)[C@H](CCCCN)NC(=O)[C@H](CCCNC(=N)N)NC(=O)[C@@H](N)CC(C)C)C(=O)N[C@@H](CCCCN)C(=O)N[C@@H](CCCNC(=N)N)C(=O)N[C@@H](CCC(N)=O)C(=O)NCC(=O)N[C@@H](CO)C(=O)N[C@H](C(=O)N1CCC[C@H]1C(=O)N[C@@H](CC(C)C)C(=O)N[C@@H](C)C(=O)O)[C@@H](C)O [LCMV GPC421-435]"
reading = 4.8

[[record]]
compound = "CC[C@H](C)[C@H](N)C(=O)N[C@@H](CO)C(=O)NCC(=O)N[C@@H](Cc1ccc(O)cc1)C(=O)N[C@@H](CC(N)=O)C(=O)N[C@@H](Cc1ccccc1)C(=O)N[C@@H](CO)C(=O)N[C@@H](CC(C)C)C(=O)N[C@@H](CO)C(=O)N[C@@H](C)C(=O)N[C@@H](C)C(=O)N[C@H](C(=O)N[C@@H](CCCCN)C(=O)N[C@@H](C)C(=O)NCC(=O)O)C(C)C [GTOV NP236-250]"
reading = 0.12


----------
Tgt: purified HLA-DRB1*0101 (Homo sapiens, UniProt P01903+P01911, A100R/D57E/F55L/F60I/F76Y/I96L/L162R/M171V/P40L/Q125E/R42F/V115G/Y59C)
Protocol details: biochemical
pIC50: −log10 of the molar value.
Each record here notes measured pIC50.
Quantity measured: pIC50

[[record]]
smiles_repr = "CC[C@H](C)[C@H](NC(=O)[C@@H](NC(=O)[C@H](CC(C)C)NC(=O)[C@H](C)NC(=O)[C@@H]1CCCN1C(=O)[C@H](CCSC)NC(=O)[C@H](CO)NC(=O)CNC(=O)[C@H](Cc1ccccc1)NC(=O)[C@H](CCC(N)=O)NC(=O)[C@H](CC(N)=O)NC(=O)[C@H](CC(N)=O)NC(=O)[C@H](CC(C)C)NC(=O)[C@@H](N)CCCCN)[C@@H](C)O)C(=O)N[C@@H](C)C(=O)O"
reading = 9.92

[[record]]
smiles_repr = "CC(C)C[C@H](NC(=O)CNC(=O)[C@H](CS)NC(=O)[C@@H](N)CO)C(=O)N[C@@H](Cc1ccc(O)cc1)C(=O)N[C@@H](CCCCN)C(=O)N[C@@H](CCC(N)=O)C(=O)N1CCC[C@H]1C(=O)NCC(=O)N[C@H](C(=O)N1CCC[C@H]1C(=O)N[C@H](C(=O)N[C@@H](CCCNC(=N)N)C(=O)N[C@@H](Cc1c[nH]c2ccccc12)C(=O)N[C@@H](CCCCN)C(=O)O)C(C)C)C(C)C"
reading = 8.82

